assay: NCI Yeast Anticancer Drug Screen. Data for the bub3 strain (AID 167); conditions: S. cerevisiae bub3 mutant strain, at 50.0 µM, active compounds read high
The panel holds about 79,000 compounds, 15% with a hit somewhere; the sample as a whole holds those more often.
Readout kind: growth inhibition (%)
Give a bare numeral; the unit % is implied.

Molecule	Readout kind	Unit of measure	Measured value
Nc1ncc([N+](=O)[O-])cn1	growth inhibition	%	5.6
O=C1C=Cc2ccccc2/C1=C/c1[nH]c(=O)[nH]c1O	growth inhibition	%	-3
CCOC(=O)c1ccc(NC(C)=O)o1	growth inhibition	%	-5.35
COc1c(CNC(=O)CCl)cc2[nH]c(C)cc2c1CNC(=O)CCl	growth inhibition	%	9.7
O=C(NCCc1ccccc1)/C(=C\c1ccc(Cl)cc1Cl)NC(=O)c1ccccc1	growth inhibition	%	4.35

### Prompt What value of growth inhibition has been reported for the following molecule? O=C(O)C1CCCN1C(=O)OCc1ccccc1 (stereo not drawn)
### Response -22.9

### Prompt What value of growth inhibition has been reported for the following molecule? C=CC(C)C(C)(C)O (stereo not drawn)
### Response -13.5

### Prompt What value of growth inhibition has been reported for the following molecule? "OCc1cccnc1"
### Response -18.5

* * *

assay: NCI Yeast Anticancer Drug Screen. Data for the cln2 rad14 strain (AID 165);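 further: 0% = growth equal to vehicle treated cultures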; settings: S. cerevisiae cln2 rad14 strain, at 50.0 µM, active compounds read high
About 79,000 compounds went through this panel and 15% of them were active in at least one assay; those are over-represented in the sample as a whole.
Parameter: growth inhibition. Scope: all listed entries.
Give a bare numeral; the unit % is implied.

Consider the following illustrative entries.
Compound	Measured value
C1Cc2onc(-c3noc4c3CCC4)c2C1	22.6
O=S(=O)(O)c1cccc2cccnc12	-14.6
CN1CCN(C(=S)S)CC1	2.15
O=c1n(CC2CO2)c(=O)n(CC2CO2)n1CC1CO1 (stereo unspecified)	8.35
Nc1c(Br)cc(O)c2c1C(=O)c1ccccc1C2=O	7
O=C(O)c1ccccc1Cc1ccc2c(c1)CCCC2	-28.9

### Prompt What value of growth inhibition has been reported for the following compound? "Nc1c(O)c(S(=O)(=O)O)c(O)c2c1C(=O)c1ccccc1C2=O"
### Response 30.9

### Prompt What value of growth inhibition has been reported for the following compound? "CCOC(=O)c1c(C)[nH]c(C)c1C=O"
### Response -1.15

### Prompt What value of growth inhibition has been reported for the following compound? "CCOC(=O)/C(O)=C(\C=N\C(=S)Nc1ccc(Cl)c(Cl)c1)C(=O)OCC"
### Response 6.65

### Prompt What value of growth inhibition has been reported for the following compound? "CCCCNc1ccc(-c2ccc(NCCCC)cc2)cc1"
### Response -36.1

### Prompt What value of growth inhibition has been reported for the following compound? C#CC(O)c1ccccc1 (stereo unspecified)
### Response -11.6

### Prompt What value of growth inhibition has been reported for the following compound? "C=C(OC(C)=O)c1ccccc1"
### Response -7.25

### Prompt What value of growth inhibition has been reported for the following compound? "CCC(=O)Oc1ccc2ccccc2c1"
### Response 14.8

### Prompt What value of growth inhibition has been reported for the following compound? "Cc1ccccc1NC(=O)Oc1ccc(Cl)cc1C(=O)c1ccccc1"
### Response 24.4

### Prompt What value of growth inhibition has been reported for the following compound? "CNc1ccccc1C(N)=O"
### Response 11.7

### Prompt What value of growth inhibition has been reported for the following compound? "Nc1ncnc(Nc2ccc(C(F)(F)F)cc2)n1"
### Response 13.2

### Prompt What value of growth inhibition has been reported for the following compound? COC(=O)C1(CC(C)=O)NC(=S)NC(=O)C1C#N (stereo unspecified)
### Response -38.2

### Prompt What value of growth inhibition has been reported for the following compound? "O=[N+]([O-])c1ccc2[nH]c(=S)n(/C=C(/c3ccc(Cl)cc3Cl)S(=O)(=O)Cc3ccc(Cl)cc3Cl)c2c1"
### Response 23.9

### Prompt What value of growth inhibition has been reported for the following compound? "N#C/C(=C\c1ccc2c(c1)OCO2)c1ccccc1"
### Response 10.2

### Prompt What value of growth inhibition has been reported for the following compound? O=C(O)C1CSC(c2ccccc2)N1 (stereo unspecified)
### Response 3

### Prompt What value of growth inhibition has been reported for the following compound? "COc1ccc2c(c1)Nc1ccccc1S2"
### Response -1.6

### Prompt What value of growth inhibition has been reported for the following compound? "COC(=O)C1=C(C)C(=O)CC1"
### Response -11.9

### Prompt What value of growth inhibition has been reported for the following compound? "CCOC(=O)C(CCC#N)(CCC#N)C(=O)OCC"
### Response -21.3

### Prompt What value of growth inhibition has been reported for the following compound? "O=C(CCl)Nc1ccccc1SCc1cc(Cl)cc2c1OCOC2"
### Response 22.9

### Prompt What value of growth inhibition has been reported for the following compound? "Cc1cccc(C)c1NC(=S)/N=C\c1c(O)[nH]c(=O)[nH]c1=O"
### Response -24.3

### Prompt What value of growth inhibition has been reported for the following compound? "C/C(O)=C(/C=N\C(=S)Nc1ccc(S(=O)(=O)Nc2nccs2)cc1)C(=O)Nc1ccccc1C"
### Response 32.8

* * *

Experiment: NCI Yeast Anticancer Drug Screen. Data for the rad50 strain (AID 155);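 further: 0% = growth of vehicle-only cultures of the same strain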
Settings: S. cerevisiae rad50 strain growth inhibition; at 50.0 µM; active compounds read high
Experimental: Growth inhibition of yeast strains with defined genetic alterations is measured as a screen for potential anti-cancer activity. Selected strains with alterations in DNA damage repair or cell cycle control were exposed to compounds and growth inhibition was measured relative to vehicle treated controls. The strain used in this assay is rad50
The panel holds about 79,000 compounds, 15% with a hit somewhere; the sample as a whole holds those more often.
Readout kind: growth inhibition (%)
Give a bare numeral; the unit % is implied.

Consider the following illustrative entries.
Compound	Unit of measure	growth inhibition
CCCCOC(=O)c1ccc(NC(=O)CCl)cc1	%	28.6
S=c1nc2[nH]c3ccccc3c2n[nH]1	%	8.45
CC(=O)c1cccs1	%	-9.65
CC(=O)OC(C)c1cccc(C#N)c1 (centres undefined)	%	7.15
Cc1ccc(N)c(S(=O)(=O)O)c1	%	-4.85

For the next question, use this compound.
### Prompt What value of growth inhibition has been reported for the following compound? "CCNc1ncnc2[nH]ncc12"
### Response -8.2

* * *

Parameter: growth inhibition. Scope: all listed entries.
test: NCI Yeast Anticancer Drug Screen. Data for the mec2-1 strain (AID 157); conditions: S. cerevisiae mec2-1 strain, at 50.0 µM, active compounds read high
About 79,000 compounds went through this panel and 15% of them were active in at least one assay; those are over-represented in the sample as a whole.
Give a bare numeral; the unit % is implied.

Consider the following illustrative entries.
Compound	Readout kind	Measured value
COC(=O)C1(CC(C)=O)NC(=S)NC(=O)C1C#N (stereo unspecified)	growth inhibition	-26.9
CCN(CC)CCOC(=O)Nc1c(C(C)C)cccc1C(C)C	growth inhibition	-24.3
O=C(OCC1CCCO1)c1ccc([N+](=O)[O-])cc1 (stereo unspecified)	growth inhibition	21.6
Cc1ccc(/C=N/NC(N)=S)s1	growth inhibition	1.9
O=[n+]1ccn([O-])c2ccccc21	growth inhibition	8.45
CCCCc1ccc2nc(NC(=O)OC)[nH]c2c1	growth inhibition	21.5
c1ccc(-c2ccc3ccccc3c2)cc1	growth inhibition	-6.65
CCCCCCCCCc1ccc(OC(C)=O)cc1	growth inhibition	97.2

### Prompt What value of growth inhibition has been reported for the following compound? "CCOC(=O)CSCCC#N"
### Response 2.35

### Prompt What value of growth inhibition has been reported for the following compound? "O=C(OC1CCCC1)c1ccccc1Cl"
### Response 8.75

### Prompt What value of growth inhibition has been reported for the following compound? "CCCCCCCCNC(=O)C(C)C"
### Response 30.1

* * *

assay: NCI Yeast Anticancer Drug Screen. Data for the cln2 rad14 strain (AID 165);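 further: 0% = growth equal to vehicle treated cultures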; details: S. cerevisiae cln2 rad14 strain, at 50.0 µM, active compounds read high
The panel holds about 79,000 compounds, 15% with a hit somewhere; the sample as a whole holds those more often.
Returns one of TRUE or FALSE; TRUE when growth inhibition is >= 10%.

Record excerpt, results attached:
Compound	Assigned label
Nc1cc2ccccc2c(O)c1O	TRUE
ClCC(Cl)[C@@H]1CC2C=CC1C2 (some centres not stated)	TRUE
CC(C)C(C)(C)C(=O)C(C)(C)C(C)(C)C	FALSE
Cc1ccc(NC(=S)N2CCOCC2)cc1C	FALSE
C=COC(=O)CCOCC(CC)CCCC (configuration not stated)	FALSE
NC(CCl)=NCC12CC3CC(CC(C3)C1)C2	TRUE

Now for another entry.
### Prompt Does the compound "c1ccc2c(NCCCN3CCN(CCCNc4c5ccccc5nc5ccccc45)CC3)c3ccccc3nc2c1" have recorded growth inhibition that is 10% or more?
### Response FALSE
